Target: 5-hydroxytryptamine receptor 2C (Rattus norvegicus)
Sequence (P08909 whole entry): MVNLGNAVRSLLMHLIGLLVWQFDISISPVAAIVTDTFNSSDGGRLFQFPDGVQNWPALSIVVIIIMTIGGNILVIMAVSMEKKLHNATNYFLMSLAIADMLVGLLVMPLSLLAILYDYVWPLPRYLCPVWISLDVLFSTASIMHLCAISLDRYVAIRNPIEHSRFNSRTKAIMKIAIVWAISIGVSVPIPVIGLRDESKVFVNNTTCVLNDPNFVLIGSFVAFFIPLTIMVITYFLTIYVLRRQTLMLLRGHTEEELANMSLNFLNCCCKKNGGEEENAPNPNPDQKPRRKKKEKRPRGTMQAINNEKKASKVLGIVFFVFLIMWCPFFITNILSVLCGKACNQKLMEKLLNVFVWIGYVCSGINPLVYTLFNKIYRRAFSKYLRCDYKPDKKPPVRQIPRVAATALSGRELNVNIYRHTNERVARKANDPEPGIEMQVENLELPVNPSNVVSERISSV
Provide the recorded Ki for the entries that follow.
Numbers only, in nM.

// for each compound below, give its Ki
1. NCCc1ccc(CCCc2ccccc2)cc1
2. COc1cc(CCc2ccccc2)c(OC)cc1CCN
3. COc1cc(CC(C)N)ccc1CCCc1ccccc1 (centres undefined)

### Response
525
76
135

// for each compound below, give its Ki
1. COc1cc(CCCc2ccccc2)cc(OC)c1CC(C)N (centres undefined)
2. COc1cc(CC(C)N)c(OC)cc1CCCc1ccccc1 (centres undefined)
3. COc1cc(CCCc2ccccc2)ccc1CC(C)N (centres undefined)

### Response
39
50
89

### Prompt Query (compound): COc1cc(CC(C)N)cc(OC)c1CCCc1ccccc1 (centres undefined) ; field requested: Ki
### Response 40

---

Target: Serotonin receptor 2a and 2c (5HT2A and 5HT2C) (Rattus norvegicus) (UniProt P08909+P14842)
Assay: Relative affinities for rat 5-HT2C receptors and 5-HT2A receptors
Assay type: protein assay
Observed property: Selectivity
One number for each entry.

Example entries and their recorded answers appear below.
COc1cc(CCCc2ccccc2)ccc1CC(C)N (configuration not stated)
11.1
COc1ccc(CCCc2cc(OC)c(CC(C)N)cc2OC)cc1 (configuration not stated)
0.9
COc1cc(CC(C)N)c(OC)cc1CCc1ccccc1 (configuration not stated)
1.5
COc1cc(CC(C)N)c(OC)cc1CCCc1ccc(Cl)cc1 (configuration not stated)
1.3
COc1cc(CC(C)N)cc(OC)c1CCCc1ccccc1 (configuration not stated)
10
COc1cc(CC(C)N)ccc1CCCc1ccccc1 (configuration not stated)
7.9

// for each molecule below, give its Selectivity
1. COc1c(CCCc2ccccc2)ccc(CC(C)N)c1OC (configuration not stated)
2. COc1cc(CCCCc2ccccc2)c(OC)cc1CCN
3. NCCc1ccc(CCCc2ccccc2)cc1
4. CC(N)Cc1ccc(CCCc2ccccc2)cc1 (configuration not stated)
5. COc1cc(CC(C)N)c(OC)cc1CCCCc1ccccc1 (configuration not stated)

### Response
1: 19.8; 2: 0.2; 3: 8.9; 4: 6.8; 5: 0.8

### Prompt Query (molecule): COc1cc(CCCc2ccccc2)cc(OC)c1CC(C)N (configuration not stated) ; field requested: Selectivity
### Response 13

Data provenance: ChEMBL document CHEMBL1133613
